Each entry below carries its recorded MIC.
System: Pseudomonas aeruginosa
Test: Antibacterial activity against OXA-19 producing Pseudomonas aeruginosa isolate P11 exhibiting PFGE A pattern by 2-fold agar dilution method
Format: functional
Provide the reading as a plain figure in µg/mL.

1. CC1(C)S[C@@H]2[C@H](NC(=O)[C@H](C(=O)O)c3ccsc3)C(=O)N2[C@H]1C(=O)O    256
2. NCC[C@H](O)C(=O)N[C@@H]1C[C@H](N)[C@@H](O[C@H]2O[C@H](CN)[C@@H](O)[C@H](O)[C@H]2O)[C@H](O)[C@H]1O[C@H]1O[C@H](CO)[C@@H](O)[C@H](N)[C@H]1O    8
3. C[C@@H](O)[C@H]1C(=O)N2C(C(=O)O)=C(SCCNC=N)C[C@H]12 [IMIPENEM ANHYDROUS]    8
4. O=C(O)c1cn(C2CC2)c2cc(N3CCNCC3)c(F)cc2c1=O    32

The molecule identified as `CC(C)(O/N=C(\C(=O)N[C@@H]1C(=O)N2C(C(=O)[O-])=C(C[n+]3ccccc3)CS[C@H]12)c1csc(N)n1)C(=O)O` registered its MIC at 256

###

System: Pseudomonas aeruginosa
Assay: Antibacterial activity against SHV-2a producing Pseudomonas aeruginosa isolate P60 exhibiting PFGE H pattern by 2-fold agar dilution method
Format: functional
measuredAttribute: MIC (µg/mL)
Quick note: give the figure in µg/mL, leave out the unit.

Example entries and their recorded answers appear below.
1) C[C@@H](O)[C@H]1C(=O)N2C(C(=O)O)=C(SCCNC=N)C[C@H]12 [IMIPENEM ANHYDROUS]    1
2) C[C@H]1[C@H](NC(=O)/C(=N\OC(C)(C)C(=O)O)c2csc(N)n2)C(=O)N1S(=O)(=O)O    32

// next entry
Lab note: `CO/N=C(\C(=O)N[C@@H]1C(=O)N2C(C(=O)[O-])=C(C[N+]3(C)CCCC3)CS[C@H]12)c1csc(N)n1` gave MIC of 64

###

Test system: Pseudomonas aeruginosa
Assay: Antibacterial activity against SHV-2a producing Pseudomonas aeruginosa isolate P60 exhibiting PFGE H pattern by 2-fold agar dilution method
Assay type: functional
measuredAttribute: MIC

1) NCC[C@H](O)C(=O)N[C@@H]1C[C@H](N)[C@@H](O[C@H]2O[C@H](CN)[C@@H](O)[C@H](O)[C@H]2O)[C@H](O)[C@H]1O[C@H]1O[C@H](CO)[C@@H](O)[C@H](N)[C@H]1O    32 µg/mL
2) CC(C)(O/N=C(\C(=O)N[C@@H]1C(=O)N2C(C(=O)[O-])=C(C[n+]3ccccc3)CS[C@H]12)c1csc(N)n1)C(=O)O    64 µg/mL

For the next question, use this compound.
Sample `O=C(O)c1cn(C2CC2)c2cc(N3CCNCC3)c(F)cc2c1=O` ; MIC observed: 32 µg/mL

###

Listed here are compounds together with their documented MIC.
Test system: Pseudomonas aeruginosa
Experiment: Antibacterial activity against OXA-19 producing Pseudomonas aeruginosa isolate P122 exhibiting PFGE A pattern by 2-fold agar dilution method
Assay type: functional
Hi! Could you send only the number? It should be in µg/mL, unit omitted.

1) CC(C)(O/N=C(\C(=O)N[C@@H]1C(=O)N2C(C(=O)[O-])=C(C[n+]3ccccc3)CS[C@H]12)c1csc(N)n1)C(=O)O [CEFTAZIDIME]    256

Here NCC[C@H](O)C(=O)N[C@@H]1C[C@H](N)[C@@H](O[C@H]2O[C@H](CN)[C@@H](O)[C@H](O)[C@H]2O)[C@H](O)[C@H]1O[C@H]1O[C@H](CO)[C@@H](O)[C@H](N)[C@H]1O [AMIKACIN] was tested on Pseudomonas aeruginosa, and its MIC came to 8

Record CC1(C)S[C@@H]2[C@H](NC(=O)[C@H](C(=O)O)c3ccsc3)C(=O)N2[C@H]1C(=O)O [TICARCILLIN] ; system Pseudomonas aeruginosa; MIC = 256

Entry O=C(O)c1cn(C2CC2)c2cc(N3CCNCC3)c(F)cc2c1=O [CIPROFLOXACIN] under Pseudomonas aeruginosa had MIC of 64

Item: C[C@@H](O)[C@H]1C(=O)N2C(C(=O)O)=C(SCCNC=N)C[C@H]12 [IMIPENEM ANHYDROUS] | System: Pseudomonas aeruginosa | MIC: 8
